Reference source: ChEMBL document CHEMBL1145743

targetUnderTest: Prothrombin (Homo sapiens)
testProtocol: Inhibitory activity against human thrombin
Listed below: Ki values for each entry.

Worked cases, Ki given:
Request: State Ki (Prothrombin (Homo sapiens)) of Cc1nc(N)ccc1CNC(=O)C1C=CCn2c(=O)n(C(CSc3ccc(Cl)c(Cl)c3)C(=O)OC3CCCCC3)c(=O)n21 (stereo unspecified) .
Response: 87 nM

Request: State Ki (Prothrombin (Homo sapiens)) of Cc1nc(N)ccc1CNC(=O)C1C=CCn2c(=O)n(C(CSC3CCCCC3)C(=O)O)c(=O)n21 (stereo unspecified) .
Response: 11 nM

Request: State Ki (Prothrombin (Homo sapiens)) of COc1ccc(SCC(C(=O)O)n2c(=O)n3n(c2=O)C(C(=O)NCc2ccc(N)nc2C)C=CC3)cc1 (stereo unspecified) .
Response: 29 nM

***
Request: State Ki (Prothrombin (Homo sapiens)) of Cc1nc(N)ccc1CNC(=O)C1C=CCn2c(=O)n(C(CSc3ccc(Cl)cc3)C(=O)OC3CCCCC3)c(=O)n21 (stereo unspecified) .
Response: 0.057 nM

Request: State Ki (Prothrombin (Homo sapiens)) of Cc1nc(N)ccc1CNC(=O)C1C=CCn2c(=O)n(C(CSc3ccc(Cl)cc3)C(=O)N3CCOCC3)c(=O)n21 (stereo unspecified) .
Response: 7.7 nM

###

targetUnderTest: Prothrombin (Homo sapiens)
testProtocol: Inhibitory activity against human thrombin
resultType: Ki (nM)
Your answer should be a plain number; it is taken to be in nM.

Worked cases, Ki given:
Request: Identify measured Ki associated with COC(=O)C(CSc1ccc(Br)cc1)n1c(=O)n2n(c1=O)C(C(=O)NC[C@H]1CC[C@H](N)CC1)C=CC2 (some centres undefined)
Response: 0.023

Request: Identify measured Ki associated with COC(=O)C(CSc1ccc(Cl)c(Cl)c1)n1c(=O)n2n(c1=O)C(C(=O)NCc1ccc(N)nc1C)C=CC2 (centres undefined)
Response: 78

Request: Identify measured Ki associated with Cc1nc(N)ccc1CNC(=O)C1C=CCn2c(=O)n(C(CSc3ccc(Cl)cc3)C(=O)O)c(=O)n21 (centres undefined)
Response: 32

For the next question, use this molecule.
Request: Identify measured Ki associated with CCOC(=O)C(CSc1ccc(Cl)c(Cl)c1)n1c(=O)n2n(c1=O)C(C(=O)NCc1ccc(N)nc1C)C=CC2 (centres undefined)
Response: 28

###

Listed below: pKi values for each entry.
targetUnderTest: Prothrombin (Homo sapiens, UniProt P00734)
testProtocol: Inhibitory activity against human thrombin
Kindly note that pKi refers to -log10 of the concentration in mol/L and answer with the value alone.

Request: State pKi (Prothrombin (Homo sapiens, UniProt P00734)) of COC(=O)C(CSc1ccc(OC)cc1)n1c(=O)n2n(c1=O)C(C(=O)NC[C@H]1CC[C@H](N)CC1)C=CC2 (stereo partly drawn) .
Response: 9.12

***
Request: State pKi (Prothrombin (Homo sapiens, UniProt P00734)) of Cc1nc(N)ccc1CNC(=O)C1C=CCn2c(=O)n(C(CSc3ccc(Br)cc3)C(=O)OC3CCCCC3)c(=O)n21 (stereo not drawn) .
Response: 8.82

Request: State pKi (Prothrombin (Homo sapiens, UniProt P00734)) of Cc1nc(N)ccc1CNC(=O)C1C=CCn2c(=O)n(C(CSc3ccc(Br)cc3)C(=O)N3CCOCC3)c(=O)n21 (stereo not drawn) .
Response: 7.41

Request: State pKi (Prothrombin (Homo sapiens, UniProt P00734)) of COC(=O)C(CSc1ccccc1)n1c(=O)n2n(c1=O)C(C(=O)NCc1ccc(N)nc1C)C=CC2 (stereo not drawn) .
Response: 7.49

Request: State pKi (Prothrombin (Homo sapiens, UniProt P00734)) of COc1ccc(SCC(C(=O)O)n2c(=O)n3n(c2=O)C(C(=O)NC[C@H]2CC[C@H](N)CC2)C=CC3)cc1 (stereo partly drawn) .
Response: 8.33

Request: State pKi (Prothrombin (Homo sapiens, UniProt P00734)) of COC(=O)C(CSc1ccc(OC)cc1)n1c(=O)n2n(c1=O)C(C(=O)NCc1ccc(N)nc1C)C=CC2 (stereo not drawn) .
Response: 7.10

Request: State pKi (Prothrombin (Homo sapiens, UniProt P00734)) of COC(=O)C(CSc1ccc(Cl)c(Cl)c1)n1c(=O)n2n(c1=O)C(C(=O)NC[C@H]1CC[C@H](N)CC1)C=CC2 (stereo partly drawn) .
Response: 9.62

Request: State pKi (Prothrombin (Homo sapiens, UniProt P00734)) of Cc1nc(N)ccc1CNC(=O)C1C=CCn2c(=O)n(C(CSc3ccc(Cl)c(Cl)c3)C(=O)OC(C)C)c(=O)n21 (stereo not drawn) .
Response: 7.28

###

Listed below: pKi values for each entry.
targetUnderTest: Prothrombin (Homo sapiens, UniProt P00734)
testProtocol: Inhibitory activity against human thrombin
Kindly note that pKi refers to -log10 of the concentration in mol/L and answer with the value alone.

Worked cases, pKi given:
Request: Identify measured pKi associated with CCOC(=O)C(CSc1ccc(Br)cc1)n1c(=O)n2n(c1=O)C(C(=O)NCc1ccc(N)nc1C)C=CC2 (stereo not drawn)
Response: 9.57

Request: Identify measured pKi associated with N[C@H]1CC[C@H](CNC(=O)C2C=CCn3c(=O)n(C(CSc4ccc(Cl)c(Cl)c4)C(=O)O)c(=O)n32)CC1 (stereo partly drawn)
Response: 7.89

Request: Identify measured pKi associated with COC(=O)C(CSC1CCCCC1)n1c(=O)n2n(c1=O)C(C(=O)NCc1ccc(N)nc1C)C=CC2 (stereo not drawn)
Response: 7.55

Request: Identify measured pKi associated with Cc1nc(N)ccc1CNC(=O)C1C=CCn2c(=O)n(C(CSc3ccc(Br)cc3)C(=O)N3CCCC3)c(=O)n21 (stereo not drawn)
Response: 7.52

***
Request: Identify measured pKi associated with N[C@H]1CC[C@H](CNC(=O)C2C=CCn3c(=O)n(C(CSc4ccc(Br)cc4)C(=O)O)c(=O)n32)CC1 (stereo partly drawn)
Response: 8.59

Request: Identify measured pKi associated with N[C@H]1CC[C@H](CNC(=O)C2C=CCn3c(=O)n(C(CSc4ccc(Cl)cc4)C(=O)O)c(=O)n32)CC1 (stereo partly drawn)
Response: 8.24

Request: Identify measured pKi associated with COC(=O)C(CSc1ccc(Cl)cc1)n1c(=O)n2n(c1=O)C(C(=O)NC[C@H]1CC[C@H](N)CC1)C=CC2 (stereo partly drawn)
Response: 9.49

Request: Identify measured pKi associated with COC(=O)C(CSc1ccc(Br)cc1)n1c(=O)n2n(c1=O)C(C(=O)NCc1ccc(N)nc1C)C=CC2 (stereo not drawn)
Response: 7.08

###

targetUnderTest: Prothrombin (Homo sapiens, UniProt P00734)
testProtocol: Inhibitory activity against human thrombin
Ki strictly under 20 nM means satisfied; at 20 nM or over means not satisfied.

Request: Lab note: Ki threshold 20 nM. Does this compound come in strictly under it? Cc1nc(N)ccc1CNC(=O)C1C=CCn2c(=O)n(C(CSc3ccc(Cl)cc3)C(=O)OC(C)C)c(=O)n21 (stereo unspecified)
Response: satisfied

Request: Lab note: Ki threshold 20 nM. Does this compound come in strictly under it? N[C@H]1CC[C@H](CNC(=O)C2C=CCn3c(=O)n(C(CSc4ccccc4)C(=O)O)c(=O)n32)CC1 (stereo partly specified)
Response: not satisfied

***
Request: Lab note: Ki threshold 20 nM. Does this compound come in strictly under it? Cc1nc(N)ccc1CNC(=O)C1C=CCn2c(=O)n(C(CSc3ccc(Cl)cc3)C(=O)N3CCCC3)c(=O)n21 (stereo unspecified)
Response: not satisfied

Request: Lab note: Ki threshold 20 nM. Does this compound come in strictly under it? N[C@H]1CC[C@H](CNC(=O)C2C=CCn3c(=O)n(C(CSC4CCCCC4)C(=O)O)c(=O)n32)CC1 (stereo partly specified)
Response: not satisfied

Request: Lab note: Ki threshold 20 nM. Does this compound come in strictly under it? COC(=O)C(CSc1ccc(Cl)cc1)n1c(=O)n2n(c1=O)C(C(=O)NCc1ccc(N)nc1C)C=CC2 (stereo unspecified)
Response: not satisfied

Request: Lab note: Ki threshold 20 nM. Does this compound come in strictly under it? COC(=O)C(CSc1ccccc1)n1c(=O)n2n(c1=O)C(C(=O)NC[C@H]1CC[C@H](N)CC1)C=CC2 (stereo partly specified)
Response: satisfied

Request: Lab note: Ki threshold 20 nM. Does this compound come in strictly under it? Cc1nc(N)ccc1CNC(=O)C1C=CCn2c(=O)n(C(CSc3ccccc3)C(=O)O)c(=O)n21 (stereo unspecified)
Response: satisfied

Request: Lab note: Ki threshold 20 nM. Does this compound come in strictly under it? Cc1nc(N)ccc1CNC(=O)C1C=CCn2c(=O)n(C(CSc3ccc(Br)cc3)C(=O)OC(C)C)c(=O)n21 (stereo unspecified)
Response: satisfied

Request: Lab note: Ki threshold 20 nM. Does this compound come in strictly under it? Cc1nc(N)ccc1CNC(=O)C1C=CCn2c(=O)n(C(CSc3ccc(Cl)c(Cl)c3)C(=O)O)c(=O)n21 (stereo unspecified)
Response: not satisfied

Request: Lab note: Ki threshold 20 nM. Does this compound come in strictly under it? Cc1nc(N)ccc1CNC(=O)C1C=CCn2c(=O)n(C(CSc3ccc(Cl)c(Cl)c3)C(=O)N3CCCC3)c(=O)n21 (stereo unspecified)
Response: satisfied

Request: Lab note: Ki threshold 20 nM. Does this compound come in strictly under it? COC(=O)C(CSC1CCCCC1)n1c(=O)n2n(c1=O)C(C(=O)NC[C@H]1CC[C@H](N)CC1)C=CC2 (stereo partly specified)
Response: not satisfied
